For each of the molecules below, state its Blackgrass plant response rating.
- Tested on: blackgrass
- assay.text: Test B pre/postemergence blackgrass
- Type: in vivo, Alopecurus myosuroides
- assay.context: Preemergence, Rate 500 g/ha; scale of 0 to 10 where 0 is no effect and 10 is complete control
One number for each entry.

A selection of reference data follows.
molecule: CC(C)N(C(=O)n1oc(=O)n(N2C(C)CCCC2C)c1=O)c1ccc(F)cc1F (stereo not drawn)
measured.on: blackgrass
Blackgrass plant response rating: 7
--
molecule: CC(C)N(C(=O)n1oc(=O)n(CCCNC(=O)CCl)c1=O)c1ccccc1
measured.on: blackgrass
Blackgrass plant response rating: 0
--
molecule: CC(C)N(C(=O)n1oc(=O)n(C2CCC2)c1=O)c1ccc(F)cc1F
measured.on: blackgrass
Blackgrass plant response rating: 8
--
molecule: COCCOCn1c(=O)on(C(=O)N(c2ccc(Cl)cc2)C(C)C)c1=O
measured.on: blackgrass
Blackgrass plant response rating: 0
--
molecule: CCc1cccc(CC)c1-n1c(=O)on(C(=O)N(c2ccc(F)cc2)C(C)C)c1=O
measured.on: blackgrass
Blackgrass plant response rating: 0

Proceeding to the next molecule to report its Blackgrass plant response rating.
# Blackgrass plant response rating (molecule: `COCn1c(=O)on(C(=O)N(c2ccc(F)cc2F)C(C)C)c1=O` ) is 10
